procedure_details: NCI Yeast Anticancer Drug Screen. Data for the mlh1 rad18 strain (AID 175)
test_settings: S. cerevisiae mlh1 rad18 strain growth inhibition; at 50.0 µM
The panel holds about 79,000 compounds, 15% with a hit somewhere; the sample as a whole holds those more often. Active and inactive are the calls of the source. Rule as the data show it: active = growth inhibition above about 70%; inactive = the rest.
Classes used: active, inactive

| compound | group_label |
| --- | --- |
| CC(N)CN.CC(N)CN.[Cl-].[O]=[Os+2]=[O] (stereo unspecified) | inactive |
| CC1(C)OP23(NC(=O)OC2(C(F)(F)F)c2ccccc2O3)OC1(C)C (stereo unspecified) | inactive |
| O=[N+]([O-])c1ccc(N(CCO)CCO)c2c1no[n+]2[O-] | active |
| CCOC(=O)C(Br)C(C)Br (stereo unspecified) | inactive |
| O=C(CN1CC1)NCCCCCCCNC(=O)CN1CC1 | inactive |
| C[N+](C)(C)CC1CCCC1=O (stereo unspecified) | inactive |
| NCCNCCN1CC1 | inactive |
| c1ccc2c(c1)Nc1ccccc1S2 | inactive |
| COC(=O)C1(C(=O)OC)ON1C(C)(C)C (stereo unspecified) | inactive |
| C/C(=N\N=C(/[Se])N1CCC(C)CC1)c1ccccn1 | active |
| COc1cc(C2CNCc3cc(OC)c(O)cc32)ccc1O (stereo unspecified) | inactive |
